Target: human DLL3 protein (extracellular segment, His tag) (human) (UniProt Q9NYJ7)
Sequence (Q9NYJ7 27-492): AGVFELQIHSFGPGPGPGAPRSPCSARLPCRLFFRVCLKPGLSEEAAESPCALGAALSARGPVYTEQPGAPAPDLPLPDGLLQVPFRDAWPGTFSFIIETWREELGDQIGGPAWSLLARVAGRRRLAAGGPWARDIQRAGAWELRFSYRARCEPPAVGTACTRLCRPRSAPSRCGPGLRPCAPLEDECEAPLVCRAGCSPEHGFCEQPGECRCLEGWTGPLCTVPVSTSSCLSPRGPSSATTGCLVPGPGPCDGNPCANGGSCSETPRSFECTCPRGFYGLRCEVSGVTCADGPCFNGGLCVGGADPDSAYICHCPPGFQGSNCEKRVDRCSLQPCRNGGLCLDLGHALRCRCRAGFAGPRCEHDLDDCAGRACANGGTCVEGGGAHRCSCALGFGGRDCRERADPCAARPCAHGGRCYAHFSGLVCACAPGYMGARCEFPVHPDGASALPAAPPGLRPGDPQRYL
Experiment: SPR (Biacore 8K), antibody captured on Protein A chip, DLL3 antigen in solution, 1:1 Langmuir fit
property: Kd (nM)
Enter your answer as a number in nM; do not include the unit.

[
  {
    "binder": "Hab008L1H2a-hFc (scFv, part only; not given: VL-VH linker and human IgG1 Fc, V domains shown, not shown: another chain or arm of the molecule; a dimerising Fc or GST; small tags and cut ends) VL: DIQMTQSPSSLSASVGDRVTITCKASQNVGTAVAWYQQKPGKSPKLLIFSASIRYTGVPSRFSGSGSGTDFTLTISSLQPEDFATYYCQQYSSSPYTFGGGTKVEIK VH: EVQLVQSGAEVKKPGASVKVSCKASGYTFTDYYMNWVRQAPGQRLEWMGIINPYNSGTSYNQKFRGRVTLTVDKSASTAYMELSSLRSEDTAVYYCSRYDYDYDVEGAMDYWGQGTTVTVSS",
    "Kd, nM": 0.535
  }
]

Please look up its Kd: Hab014VL3VH1-hFc (scFv, part only; not given: VL-VH linker and human IgG1 Fc, V domains shown, not shown: another chain or arm of the molecule; a dimerising Fc or GST; small tags and cut ends) VL: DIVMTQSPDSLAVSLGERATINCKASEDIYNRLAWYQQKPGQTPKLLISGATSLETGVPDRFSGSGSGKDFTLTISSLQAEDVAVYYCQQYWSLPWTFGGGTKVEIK VH: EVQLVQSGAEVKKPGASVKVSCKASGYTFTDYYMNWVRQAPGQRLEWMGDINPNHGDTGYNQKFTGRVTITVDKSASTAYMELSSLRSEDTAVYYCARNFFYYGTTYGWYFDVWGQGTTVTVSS
0.0946

Quick one: Hab008L3H2a-hFc (scFv, part only; not given: VL-VH linker and human IgG1 Fc, V domains shown, not shown: another chain or arm of the molecule; a dimerising Fc or GST; small tags and cut ends) VL: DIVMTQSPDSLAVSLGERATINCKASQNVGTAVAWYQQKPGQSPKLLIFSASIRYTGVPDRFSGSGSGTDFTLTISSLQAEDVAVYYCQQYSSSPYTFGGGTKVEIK VH: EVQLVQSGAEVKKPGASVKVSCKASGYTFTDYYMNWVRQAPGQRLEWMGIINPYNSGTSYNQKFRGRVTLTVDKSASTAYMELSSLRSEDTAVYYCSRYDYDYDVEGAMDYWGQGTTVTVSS
0.529
